Reference source for all entries: patent US8680111B2

- EXPERIMENTAL SYSTEM: human recombinant L1196M ALK kinase domain (amino acids 1093-1411) (Homo sapiens, UniProt Q9UM73, L1196M)
- Construct: ALK kinase domain (amino acids 1093-1411); made in house
- ASSAY NAME: L1196M mutant ALK enzyme assay (microfluidic mobility shift)
- Format: biochemical
- CONDITION CONTEXT: ATP 60 μM, 0.5 nM enzyme, competitive inhibition fit; read-out: L1196M ALK enzyme assay (Ki)
ENDPOINT NAME: Ki

Task: Request the reported Ki associated with CC1Oc2cc(cnc2N)-c2c(nn(C)c2C2CC2)CN(C)C(=O)c2ccc(F)cc21 (single isomer, unassigned) [Example 16]
Result: > 2270 nM

Task: Record request: Ki value, item `COc1nccc2c1-c1cnc(N)c(c1)O[C@H](C)c1cc(F)ccc1C(=O)N(C)C2`
Result: 15 nM

Task: Please look up its Ki: CC1Oc2nc(cnc2N)-c2c(nn(C)c2C#N)CN(C)C(=O)c2ccc(F)cc21 (single isomer, unassigned) [Example 32]
Result: < 0.1 nM

Task: Which Ki is reported for this compound? CC1Oc2cc(cnc2N)-c2c(C(C)(C)C)nn(C)c2CN(C)C(=O)c2ncccc21 (single isomer, unassigned) [Example 69]
Result: > 3000 nM

Task: Requested field: Ki. Item: CC1Oc2cc(cnc2N)-c2c(C(C)(C)C)nn(C)c2CN(C)C(=O)c2ncccc21 (centres unmarked) [Example 67]
Result: > 1500 nM
